Reference for the values: FireProtDB (doi:10.1016/0022-2836(92)90560-7)

B1: Ribonuclease, P00648 (parent)
chain: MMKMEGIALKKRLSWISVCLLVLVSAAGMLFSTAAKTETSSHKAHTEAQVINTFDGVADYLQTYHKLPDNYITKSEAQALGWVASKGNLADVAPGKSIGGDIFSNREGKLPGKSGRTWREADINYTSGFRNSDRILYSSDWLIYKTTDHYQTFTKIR

Variants of: B1
condition-parameters: Bacillus amyloliquefaciens; pH 9; 25 °C; Urea; Fluorescence; MES/Tris 150 mM/150 mM/; NaCl 1 M; structure 1BNI; whole UniProt chain shown
Answer each item with its documented denaturant midpoint (higher = more stable).
A bare number is not enough; add the unit after it.

Respectfully, I request denaturant midpoint (higher = more stable) for each entry included below.
1. H65G
2. W141L
3. W141F
4. W141Y
5. H65G W141L

Key:
1. 5.06 M
2. 4.47 M
3. 4.5 M
4. 4.29 M
5. 4.96 M
